Target: Glycogen synthase kinase-3 beta (Homo sapiens)
Assay: Inhibition of human GSK3-beta assessed as residual activity at 0.1 uM relative to control
assay-metric: Activity (%)

[
  {
    "smiles-repr": "CNS(=O)(=O)c1ccc2c(c1)/C(=C/c1cn(C)c3ccc(OC)cc13)C(=O)N2",
    "target-or-system": "Glycogen synthase kinase-3 beta (Homo sapiens)",
    "assay-metric": "Activity",
    "quantity-unit": "%",
    "numeric-value": 90
  },
  {
    "smiles-repr": "COc1ccc2c(c1)c(/C=C1\\C(=O)Nc3ccc(S(N)(=O)=O)cc31)cn2C",
    "target-or-system": "Glycogen synthase kinase-3 beta (Homo sapiens)",
    "assay-metric": "Activity",
    "quantity-unit": "%",
    "numeric-value": 93
  },
  {
    "smiles-repr": "COc1ccc2c(c1)c(/C=C1\\C(=O)Nc3ccc(S(=O)(=O)N(C)C)cc31)cn2C",
    "target-or-system": "Glycogen synthase kinase-3 beta (Homo sapiens)",
    "assay-metric": "Activity",
    "quantity-unit": "%",
    "numeric-value": 98
  },
  {
    "smiles-repr": "CN(C)S(=O)(=O)c1ccc2c(c1)/C(=C/c1cn(C)c3ccc(O)cc13)C(=O)N2",
    "target-or-system": "Glycogen synthase kinase-3 beta (Homo sapiens)",
    "assay-metric": "Activity",
    "quantity-unit": "%",
    "numeric-value": 99
  },
  {
    "smiles-repr": "Cn1cc(/C=C2\\C(=O)Nc3ccc(S(N)(=O)=O)cc32)c2ccccc21",
    "target-or-system": "Glycogen synthase kinase-3 beta (Homo sapiens)",
    "assay-metric": "Activity",
    "quantity-unit": "%",
    "numeric-value": 104
  },
  {
    "smiles-repr": "COc1ccc2[nH]cc(/C=C3\\C(=O)Nc4ccc(S(N)(=O)=O)cc43)c2c1",
    "target-or-system": "Glycogen synthase kinase-3 beta (Homo sapiens)",
    "assay-metric": "Activity",
    "quantity-unit": "%",
    "numeric-value": 103
  }
]
